# Read-out: Interleukin-8 (IL8), CXCL8 (gene 3576)
# assay-summary: BSK_LPS_IL8: BioMAP Diversity Plus: LPS Assay for Interleukin-8 (IL8) Biomarker Activity (AID 2283078)
# measurement-parameters: primary human HUVEC with PBMC; actives raise or lower the signal
Active and inactive are the calls of the source. The calls were made as follows: active = hit-call score of the fitted dose curve at least 0.9, where 1 is the maximum; inactive = score below 0.9.
quantity-name: AC50

Solved entries (count: 5):
>  <compound-smiles>
CCCc1cc(=O)[nH]c(=S)[nH]1

>  <AC50>
inactive

$$$$
>  <compound-smiles>
CCCCCCCCCCCC(=O)OC

>  <AC50>
inactive

$$$$
>  <compound-smiles>
C=CCOC(=O)c1ccccc1C(=O)OCC=C

>  <AC50>
inactive

$$$$
>  <compound-smiles>
Cc1ccccc1Cl

>  <AC50>
inactive

$$$$
>  <compound-smiles>
Nc1ccc(S(=O)(=O)c2ccc(N)cc2)cc1

>  <AC50>
inactive

$$$$

Return value of AC50 for input `CCCCCCCCCCCCCCCC` , no commentary. inactive

Output AC50 of `CCc1c(C(=O)NN2CCCCC2)nn(-c2ccc(Cl)cc2Cl)c1-c1ccc(Br)cc1` 5.2 µM (active)

Output measured AC50 for this item: `O=c1c(O)c(-c2ccc(O)c(O)c2)oc2cc(O)cc(O)c12` 20 µM (active)

Look up AC50 of `CCOC(=O)CCC(=O)OCC` and report it. inactive

Identify AC50 associated with the molecule `Cc1ccc(C)c(C)c1` inactive

Give the reported AC50 for this molecule. `CN[C@H]1CC[C@@H](c2ccc(Cl)c(Cl)c2)c2ccc(S(N)(=O)=O)cc21` 20 µM (active)

* * *

# Read-out: Monocyte Chemoattractant Protein-1 (MCP1), CCL2 (gene 6347)
# assay-summary: BSK_LPS_MCP1: BioMAP Diversity Plus: LPS Assay for Monocyte Chemoattractant Protein-1 (MCP1) Biomarker Activity (AID 2283081)
# measurement-parameters: primary human HUVEC with PBMC; actives raise or lower the signal
Activity calls are given as the source filed them. How the source made its calls: active means hit-call score of the fitted dose curve at least 0.9, where 1 is the maximum; inactive means score below 0.9.
Lab note: assign the record to one of 1.0 (active), 0.0 (inactive)

See these solved cases before continuing.
>  <compound>
c1cc(-c2ccncc2)ccn1

>  <category-label>
0.0

$$$$
>  <compound>
COc1cc(C=O)ccc1O

>  <category-label>
0.0

$$$$
>  <compound>
CCOC(=O)C(C)(C)Oc1ccc(Cl)cc1

>  <category-label>
0.0

$$$$
>  <compound>
CCCCCCC(=O)OCC

>  <category-label>
0.0

$$$$
>  <compound>
CCCCCCCCCCO

>  <category-label>
0.0

$$$$
>  <compound>
CN1CCN(Cc2cc(-c3ccc4[nH]c(=O)oc4c3)co2)[C@@H](c2ccc(F)cc2)C1

>  <category-label>
1.0

$$$$
>  <compound>
CCCCCCCCCCCCCCCCCC(=O)O

>  <category-label>
0.0

$$$$
>  <compound>
CC(C)c1ccc(C(=O)N=C(N)N)cc1S(C)(=O)=O

>  <category-label>
0.0

$$$$
>  <compound>
Cc1nc(-c2ccc3c(c2)CCN(CCC2CCC(NC(=O)/C=C/c4ccc(F)cc4)CC2)CC3)no1 (stereo unspecified)

>  <category-label>
0.0

$$$$
>  <compound>
CCCCCCCCCCCC(=O)OC

>  <category-label>
0.0

$$$$

What was the test verdict on `CCCCCCOCCO` ? 0.0

Test call, this compound: `C[Si]1(C)O[Si](C)(C)O[Si](C)(C)O[Si](C)(C)O1` 0.0

So what was the verdict on `COc1cc(S(=O)(=O)O)c(C)cc1N=Nc1c(O)ccc2cc(S(=O)(=O)O)ccc12` in this test? 0.0

What is the recorded call for this compound in the test? `Cc1nc(C)nc(N2C[C@@H](C)N(c3ccnc([C@@H](C)O)n3)[C@@H](C)C2)n1` 0.0

How was `O=C(OCCCCCOC(=O)c1ccccc1)c1ccccc1` classified in this test? 0.0

Test call, this compound: `C=CCOC(=O)c1ccccc1C(=O)OCC=C` 0.0
